ASSAY PROCEDURE: activity coefficient (dimensionless); of the first substance listed, at infinite dilution; xn = mol fraction of the nth substance listed
EXPERIMENTAL PARAMETERS: 353.15 K; 101.33 kPa; Liquid; Chromatography; x1 = 0
# note: exactly 3 is not below, so it is Criterion not met; use Criterion met for activity coefficient strictly under it

Ask: Determine whether this compound shows activity coefficient lower than 3 (ties excluded): CC(C)O [propan-2-ol] + CCCCCCCCn1cc[n+](C)c1C.F[B-](F)(F)F
Result: Criterion met

Ask: For this compound, is activity coefficient lower than 3? ClCCl [dichloromethane] + CCCCCCCCn1cc[n+](C)c1C.F[B-](F)(F)F
Result: Criterion met

Ask: Does this compound meet the criterion activity coefficient < 3? CCCCCCCCCC [decane] + CCCCCCCCn1cc[n+](C)c1C.F[B-](F)(F)F
Result: Criterion not met

Ask: Dear colleague, could you confirm whether activity coefficient of Cc1cccc(C)c1 [1,3-dimethylbenzene] + CCCCCCCCn1cc[n+](C)c1C.F[B-](F)(F)F falls below 3? Thanks.
Result: Criterion not met
